substrate: CCCC(=O)Oc1ccc([N+](=O)[O-])cc1; assay: purified protein; assay type: biochemical, Lactobacillus johnsonii; conditions: HEPES pH 7.80, 25 °C (typical assay; saturation conditions as in ref 14), pH 7.8
Kindly state kcat/Km for each of the entries shown.
Numbers only; they are read as M⁻¹ s⁻¹.

## Task Would you mind telling me what kcat/Km value was observed for LJ0536 (cinnamoyl esterase) (Lactobacillus johnsonii; H32A) (protein, full length in p15TV-L, E. coli BL21(DE3); His6-tag removed by TEV for kinetics; crystals: tag uncleaved, protease-treated (subtilisin or V8), residues 1-245 modelled, four C-terminal residues lost) MATITLERDGLQLVGTREEPFGEIYDMAIIFAGFTANRNTSLLREIANSLRDENIASVRFDFNGHGDSDGKFENMTVLNEIEDANAILNYVKTDPHVRNIYLVGHSQGGVVASMLAGLYPDLIKKVVLLAPAATLKGDALEGNTQGVTYNPDHIPDRLPFKDLTLGGFYLRIAQQLPIYEVSAQFTKPVCLIHGTDDTVVSPNASKKYDQIYQNSTLHLIEGADHCFSDSYQKNAVNLTTDFLQNNNAF ?
## Result 318

## Task Would you mind telling me what kcat/Km value was observed for LJ0536 (cinnamoyl esterase) (Lactobacillus johnsonii; D138A) (protein, full length in p15TV-L, E. coli BL21(DE3); His6-tag removed by TEV for kinetics; crystals: tag uncleaved, protease-treated (subtilisin or V8), residues 1-245 modelled, four C-terminal residues lost) MATITLERDGLQLVGTREEPFGEIYDMAIIFHGFTANRNTSLLREIANSLRDENIASVRFDFNGHGDSDGKFENMTVLNEIEDANAILNYVKTDPHVRNIYLVGHSQGGVVASMLAGLYPDLIKKVVLLAPAATLKGAALEGNTQGVTYNPDHIPDRLPFKDLTLGGFYLRIAQQLPIYEVSAQFTKPVCLIHGTDDTVVSPNASKKYDQIYQNSTLHLIEGADHCFSDSYQKNAVNLTTDFLQNNNAF ?
## Result 2570

## Task Would you mind telling me what kcat/Km value was observed for LJ0536, cinnamoyl esterase of Lactobacillus johnsonii N6.2 (wild type) (enzyme, UniProt D3YEX6 1-249, looked up, LJ0536, serine cinnamoyl esterase, Lactobacillus johnsonii N6.2; the crystallised fragment 1-245 is said to lack four C-terminal residues of the full-length protein; The protein as used for gel filtration; also called WT) MATITLERDGLQLVGTREEPFGEIYDMAIIFHGFTANRNTSLLREIANSLRDENIASVRFDFNGHGDSDGKFENMTVLNEIEDANAILNYVKTDPHVRNIYLVGHSQGGVVASMLAGLYPDLIKKVVLLAPAATLKGDALEGNTQGVTYNPDHIPDRLPFKDLTLGGFYLRIAQQLPIYEVSAQFTKPVCLIHGTDDTVVSPNASKKYDQIYQNSTLHLIEGADHCFSDSYQKNAVNLTTDFLQNNNAF ?
## Result 9590
